MIC for assorted compounds
- Test system: Enterococcus faecalis
- measurement-protocol: Antimicrobial activity Enterococcus faecalis ATCC 29212 after 16 to 20 hrs by broth microdilution method
- Type: functional
Report only the number, with the unit mg/L understood.

Look over these answered cases.
O=C(O)C(F)(F)F.c1cc2cc(-c3ccc(-c4cc5ccc(C6=NCCCN6)cc5[nH]4)cc3)[nH]c2cc1C1=NCCCN1	0.08
CC(=O)O.c1cc2cc(-c3cnc(-c4cc5ccc(C6=NCCN6)cc5[nH]4)cn3)[nH]c2cc1C1=NCCN1	20
CC(=O)O.c1cc2cc(-c3ccc(-c4cc5ccc(C6=NCCN6)cc5[nH]4)nc3)[nH]c2cc1C1=NCCN1	0.31

Turning now to a further compound:
Kindly state the measured MIC obtained for CC(=O)O.c1cc2cc(-c3ccc(-c4cc5ccc(C6=NCCCN6)cc5[nH]4)s3)[nH]c2cc1C1=NCCCN1 with Enterococcus faecalis.
0.16

* * *

- Test system: Haemophilus influenzae
- measurement-protocol: Antimicrobial activity against Haemophilus influenzae ATCC 10211 after 16 to 20 hrs by broth microdilution method
- Type: functional
Rule: measured MIC below 1 µg/mL gets Yes; anything equal to or greater than 1 µg/mL gets No.

Worked set:
O=C(O)C(F)(F)F.c1cc2cc(-c3ccc(-c4cc5ccc(C6=NCCCN6)cc5[nH]4)cc3)[nH]c2cc1C1=NCCCN1	Yes
O=C(O)C(F)(F)F.OC1CN=C(c2ccc3cc(-c4ccc(-c5cc6ccc(C7=NCC(O)CN7)cc6[nH]5)cc4)[nH]c3c2)NC1 (stereo not drawn)	No
O=C(O)C(F)(F)F.c1cc2cc(-c3ccc(-c4cc5ccc(C6=NCCN6)cc5[nH]4)cc3)[nH]c2cc1C1=NCCN1	Yes
O=C(O)c1cn(C2CC2)c2cc(N3CCNCC3)c(F)cc2c1=O	No
CC1CN=C(c2ccc3cc(-c4ccc(-c5cc6ccc(C7=NCC(C)CN7)cc6[nH]5)cc4)[nH]c3c2)NC1.O=C(O)C(F)(F)F (stereo not drawn)	No
O=C(O)C(F)(F)F.c1cc2cc(-c3ccc(-c4cc5ccc(C6=NCCN6)cc5[nH]4)s3)[nH]c2cc1C1=NCCN1	Yes

Does this molecule meet the criterion MIC < 1 µg/mL? CC1(C)CN=C(c2ccc3cc(-c4ccc(-c5cc6ccc(C7=NCC(C)(C)CN7)cc6[nH]5)cc4)[nH]c3c2)NC1.O=C(O)C(F)(F)F
No

Does this molecule meet the criterion MIC < 1 µg/mL? CC(=O)O.c1cc2cc(-c3ccc(-c4cc5ccc(C6=NCCCN6)cc5[nH]4)nc3)[nH]c2cc1C1=NCCCN1
No

* * *

- System: Pseudomonas aeruginosa
- measurement-protocol: Antimicrobial activity against efflux pump mexAB-oprM-deficient Pseudomonas aeruginosa PAO1 after 16 to 20 hrs by broth microdilution method
- Assay type: functional
result-type: MIC (µg/mL)
Report only the number, with the unit µg/mL understood.

Look over these answered cases.
CC(=O)O.c1cc2cc(-c3ccc(-c4cc5ccc(C6=NCCCN6)cc5[nH]4)nc3)[nH]c2cc1C1=NCCCN1	2.5
O=C(O)C(F)(F)F.c1cc2cc(CCc3cc4ccc(C5=NCCCN5)cc4[nH]3)[nH]c2cc1C1=NCCCN1	10
COC1CN=C(c2ccc3cc(-c4ccc(-c5cc6ccc(C7=NCC(OC)CN7)cc6[nH]5)cc4)[nH]c3c2)NC1.O=C(O)C(F)(F)F (stereo unspecified)	2.5

Kindly state the measured MIC obtained for CC(=O)O.c1cc2cc(-c3cnc(-c4cc5ccc(C6=NCCCN6)cc5[nH]4)cn3)[nH]c2cc1C1=NCCCN1 with Pseudomonas aeruginosa.
5

Kindly state the measured MIC obtained for FC1CN=C(c2ccc3cc(-c4ccc(-c5cc6ccc(C7=NCC(F)CN7)cc6[nH]5)cc4)[nH]c3c2)NC1.O=C(O)C(F)(F)F (stereo unspecified) with Pseudomonas aeruginosa.
0.31

Kindly state the measured MIC obtained for O=C(O)C(F)(F)F.OC1CN=C(c2ccc3cc(-c4ccc(-c5cc6ccc(C7=NCC(O)CN7)cc6[nH]5)cc4)[nH]c3c2)NC1 (stereo unspecified) with Pseudomonas aeruginosa.
0.31

Kindly state the measured MIC obtained for O=C(O)C(F)(F)F.c1cc2cc(-c3ccc(-c4cc5ccc(C6=NCCCN6)cc5[nH]4)cc3)[nH]c2cc1C1=NCCCN1 with Pseudomonas aeruginosa.
0.31

Kindly state the measured MIC obtained for CC1CN=C(c2ccc3cc(-c4ccc(-c5cc6ccc(C7=NCC(C)CN7)cc6[nH]5)cc4)[nH]c3c2)NC1.O=C(O)C(F)(F)F (stereo unspecified) with Pseudomonas aeruginosa.
0.63

Kindly state the measured MIC obtained for c1cc2cc(CCCCc3cc4ccc(C5=NCCCN5)cc4[nH]3)[nH]c2cc1C1=NCCCN1 with Pseudomonas aeruginosa.
40
